Origin of measurements: ChEMBL document CHEMBL4513216

# cytotoxicity at 10 µM annotations
# assay-notes: Toxicity liver stage against HepG2, at 10uM
# Type: cell-based
# Set-up: test concentration 10 uM, cell line HepG2-A16-CD81EGFP
# test-conditions: human, HepG2-A16-CD81EGFP cells; read-out: INHIBITION
attribute-measured: cytotoxicity at 10 µM (%)

{"compound": "CN(C)C(=O)C1CN(Cc2ccccn2)CCN(S(C)(=O)=O)C1 (stereo not drawn)", "value-reported": 26.9}
{"compound": "CCn1c(Cn2cncn2)nnc1C1CCN(CC2[C@H]3CNC[C@@H]23)CC1 (stereo partly drawn)", "value-reported": 6.77}
{"compound": "CCc1nc(CN2CCCN(C(=O)Cc3cccs3)CC2)cs1", "value-reported": 2.55}

* * *

A collection of compounds and their measured cytotoxicity at 10 µM
# assay-notes: Toxicity liver stage against HepG2, at 10uM
# Type: cell-based
# Set-up: test concentration 10 uM, cell line HepG2-A16-CD81EGFP
# test-conditions: human, HepG2-A16-CD81EGFP cells; read-out: INHIBITION

{"compound": "CCOCCN(C)C(c1cccnc1)c1ccc(F)cc1F (stereo unspecified)", "cytotoxicity at 10 µM, %": 5.64}
{"compound": "Cc1noc(C)c1CN1CC[C@H]2[C@H]1CCN2CC1CCOCC1", "cytotoxicity at 10 µM, %": 2}
{"compound": "Fc1ccc(C(CNc2ccncn2)N2CCCCC2)cc1 (stereo unspecified)", "cytotoxicity at 10 µM, %": -1.88}
{"compound": "CN(C)[C@@H]1CCN(S(=O)(=O)c2cn(C)cn2)[C@H]1Cc1cccnc1", "cytotoxicity at 10 µM, %": 9.79}
{"compound": "CCCS(=O)(=O)N1CCCC(c2cccc(C(=O)O)c2)C1 (stereo unspecified)", "cytotoxicity at 10 µM, %": 6.09}
{"compound": "O=C(NCc1ccccc1)C1=NOC2(CCNC2)C1 (stereo unspecified)", "cytotoxicity at 10 µM, %": 0.213}
{"compound": "Cn1cccc1C(=O)NCc1ccnc(C2CCCOC2)n1 (stereo unspecified)", "cytotoxicity at 10 µM, %": 3.41}
{"compound": "Cc1cc(CC(C)Nc2nc(-c3cccnc3)nc3c2CNC3)[nH]n1 (stereo unspecified)", "cytotoxicity at 10 µM, %": 3.28}
{"compound": "CCn1c(N)nc2cc(C(=O)N(C)Cc3cc(C(C)(C)C)n[nH]3)cnc21", "cytotoxicity at 10 µM, %": 4.53}
{"compound": "CCN(CCNC(=O)c1ccccc1OCCOC)C1CC1", "cytotoxicity at 10 µM, %": 11.7}
{"compound": "Cc1ccc(CN2CCCC23CCN(S(=O)(=O)c2ccccc2)C3)o1 (stereo unspecified)", "cytotoxicity at 10 µM, %": 0.642}
{"compound": "CCc1nc(CN2CCCN(C(=O)c3cnc(C)cn3)CC2)cs1", "cytotoxicity at 10 µM, %": -4.81}
{"compound": "COc1ccc(-c2nc(CN3CCCC3Cn3cccn3)no2)cc1 (stereo unspecified)", "cytotoxicity at 10 µM, %": -1.89}
{"compound": "O=C(c1csc(C2CC2)n1)N1CCCCC1Cn1cccn1 (stereo unspecified)", "cytotoxicity at 10 µM, %": 0.745}
{"compound": "Cc1ccc(F)c(CNc2ccn(CCC(N)=O)n2)c1", "cytotoxicity at 10 µM, %": -4.75}
{"compound": "CCOC(=O)c1ccc(N2CCN(Cc3c(C)nn(C)c3Cl)CC2)nc1", "cytotoxicity at 10 µM, %": 20.5}
{"compound": "C[C@@H]1CN(Cc2cc(C(F)(F)F)ccc2F)CC[C@@]1(O)C1CC1", "cytotoxicity at 10 µM, %": 6}
{"compound": "CC(=O)N1CCOCC2(CN(Cc3ccc(C)o3)CCO2)C1 (stereo unspecified)", "cytotoxicity at 10 µM, %": 6.41}
{"compound": "CN(C)CC1CN(c2cnc3ccccc3n2)CCO1 (stereo unspecified)", "cytotoxicity at 10 µM, %": -9.93}
{"compound": "Cc1ccc(C(=O)N2CCCC(c3[nH]ncc3S(C)(=O)=O)C2)s1 (stereo unspecified)", "cytotoxicity at 10 µM, %": -10.6}
{"compound": "Cc1nsc(N2CCN(C(=O)Nc3cccc(F)c3)CC2)n1", "cytotoxicity at 10 µM, %": -18.3}
{"compound": "COCC(=O)N1CCN(C(C)C(=O)NC(C)C)CC1 (stereo unspecified)", "cytotoxicity at 10 µM, %": 1.06}
{"compound": "CC(NC(=O)Cc1cccs1)(C(N)=O)c1cccc(Cl)c1 (stereo unspecified)", "cytotoxicity at 10 µM, %": 11.3}
{"compound": "O=C(NCc1ccc(-n2cncn2)nc1)c1cc(Cl)ccn1", "cytotoxicity at 10 µM, %": 2.8}
{"compound": "Cc1cnn(C2CCCN(C(=O)c3ccc(C(N)=O)cn3)C2)c1 (stereo unspecified)", "cytotoxicity at 10 µM, %": -7.35}
{"compound": "Cc1ncsc1CCN(C)C(=O)c1c(O)cccc1O", "cytotoxicity at 10 µM, %": 0.417}
{"compound": "O=S(=O)(NC[C@H]1C[C@@H]2CCN1C[C@@H]2CN1CCOCC1)c1ccccc1", "cytotoxicity at 10 µM, %": 1.82}
{"compound": "COc1cc(Cl)ccc1CNC(=O)N(C)C(C)CS(C)(=O)=O (stereo unspecified)", "cytotoxicity at 10 µM, %": -50.1}
{"compound": "O=C(CC1CC1)N[C@@H]1CN(Cc2ccncc2)C[C@@H]2CCCO[C@@H]21", "cytotoxicity at 10 µM, %": -7.96}
{"compound": "CC(Sc1nnnn1C1CCOCC1)C(=O)NC1CCCCC1 (stereo unspecified)", "cytotoxicity at 10 µM, %": 18.3}
{"compound": "CC1(C(=O)NCc2ccsc2)CCOCC1", "cytotoxicity at 10 µM, %": 5.73}
{"compound": "CCn1c(CN2CCCC2)nnc1C1CCN(Cc2ccc(C)o2)CC1", "cytotoxicity at 10 µM, %": -14.8}
{"compound": "Cc1ccnc2c1NC(=O)CN2C(=O)CCC(F)(F)F", "cytotoxicity at 10 µM, %": -15}
{"compound": "O=C(C1CCCC1)N1CCC(c2n[nH]c3nccnc23)CC1", "cytotoxicity at 10 µM, %": 0.165}
{"compound": "O=C(CCc1ccccc1F)NS(=O)(=O)c1ccc2c(c1)OCCO2", "cytotoxicity at 10 µM, %": -18.6}
{"compound": "Cn1ccnc1-c1noc(NCc2ccc(Cl)cc2)n1", "cytotoxicity at 10 µM, %": -9.46}

* * *

# assay-notes: Toxicity liver stage against HepG2, at 10uM
# Type: cell-based
# Set-up: test concentration 10 uM, cell line HepG2-A16-CD81EGFP
# test-conditions: human, HepG2-A16-CD81EGFP cells; read-out: INHIBITION

{"compound": "O=C(NC1CC1)c1ccc2ccc(N3CCN(CC4CC4)CC3)n2c1", "value-unit": "%", "cytotoxicity at 10 µM": 1.26}
{"compound": "COc1cc(C)ccc1OCCN1CC[C@@]2(O)CCNC[C@H]2C1", "value-unit": "%", "cytotoxicity at 10 µM": -157}
{"compound": "Cc1cccc2c1cnn2CCCNC(=O)c1ccnn1C", "value-unit": "%", "cytotoxicity at 10 µM": 13.4}
{"compound": "CC(=O)Nc1ncc(S(=O)(=O)Nc2ccc(C)cc2)s1", "value-unit": "%", "cytotoxicity at 10 µM": 8.6}
{"compound": "CN(Cc1nnc2n1CCC2)C(=O)c1ccc2c(c1)CCO2", "value-unit": "%", "cytotoxicity at 10 µM": -9.33}
{"compound": "N[C@H]1CN(CCOc2ccc(F)cc2)C[C@@H]1C1CC1", "value-unit": "%", "cytotoxicity at 10 µM": -1.93}
{"compound": "O=C(O)c1cc(S(=O)(=O)Nc2ccc(F)c(Cl)c2)cc2c1OCCO2", "value-unit": "%", "cytotoxicity at 10 µM": -2.33}
{"compound": "Cn1cc(Br)c(C(=O)NCCn2cc(Br)cn2)n1", "value-unit": "%", "cytotoxicity at 10 µM": -13.3}
{"compound": "Cc1ccccc1C1(O)CCN(C(=O)CCc2cn3ccccc3n2)C1 (stereo not drawn)", "value-unit": "%", "cytotoxicity at 10 µM": -3.18}
{"compound": "Cc1cc(C)n(CCC(=O)OCC(=O)N2CCc3sccc3C2)n1", "value-unit": "%", "cytotoxicity at 10 µM": 8.52}
{"compound": "CCOc1cc(CNCc2ncc[nH]2)c(Cl)cc1OC(C)C", "value-unit": "%", "cytotoxicity at 10 µM": 5.45}
{"compound": "CC(C)(O)c1cc(CC2(NCC3CCCCC3)COC2)no1", "value-unit": "%", "cytotoxicity at 10 µM": 0.0962}
{"compound": "CC(Cn1cccn1)NCCCc1nc(-c2cccs2)no1 (stereo not drawn)", "value-unit": "%", "cytotoxicity at 10 µM": -9.8}
{"compound": "O=C(c1ccoc1)N1CC[C@@H]2O[C@@H](COCc3ccccn3)CC[C@@H]21", "value-unit": "%", "cytotoxicity at 10 µM": -71.1}
{"compound": "COc1cccc(N2CCC(CNC(=O)NCc3ccco3)C2)c1 (stereo not drawn)", "value-unit": "%", "cytotoxicity at 10 µM": -127}
{"compound": "Cc1ccc(N2CCCN(C(=O)CC3CCCO3)CC2)nn1 (stereo not drawn)", "value-unit": "%", "cytotoxicity at 10 µM": -3.68}
{"compound": "Cc1cc(S(C)(=O)=O)c(C)c(S(=O)(=O)NCC2CCC2)c1", "value-unit": "%", "cytotoxicity at 10 µM": 16.3}
{"compound": "Cc1cccc2c1nc(COCC(=O)O)n2-c1ccsc1", "value-unit": "%", "cytotoxicity at 10 µM": -0.793}
{"compound": "O=C(NC1CCN(c2ncccc2F)C1)c1cccc(-n2ccnc2)c1 (stereo not drawn)", "value-unit": "%", "cytotoxicity at 10 µM": 9.49}
{"compound": "COc1ccc(-c2cc(C(=O)NCCC(C)C)n(C)n2)cc1", "value-unit": "%", "cytotoxicity at 10 µM": 0}
{"compound": "CC(C)=CCN1CCN(S(=O)(=O)c2cn(C)cn2)[C@H]2CS(=O)(=O)C[C@H]21", "value-unit": "%", "cytotoxicity at 10 µM": 0.634}
{"compound": "CCn1c(=O)[nH]c2cn(-c3cccc(Cl)c3)c(=O)n21", "value-unit": "%", "cytotoxicity at 10 µM": 0.0452}
{"compound": "Cc1nc2n(n1)CC(NCc1ccc(Cl)c3cccnc13)CC2 (stereo not drawn)", "value-unit": "%", "cytotoxicity at 10 µM": -8.81}
